# Tested on: HCT-116
# experimentNotes: cells
# reportedConditions: Homo sapiens, HCT-116, 72 h
pIC50 reference
A value of pIC50 is the negative decimal logarithm of a concentration given in moles per litre.

- querySmiles: "COc1cc(/C=C2/C(=O)CCc3c(OC)cccc32)cc(OC)c1"
  pIC50: 5.25
- querySmiles: "COc1cccc2c1CCC(=O)/C2=C/c1ccc(N(C)C)cc1"
  pIC50: 5.01
- querySmiles: "COc1cc(/C=C2/C(=O)CCc3cc(OC)ccc32)cc(OC)c1"
  pIC50: 6.82

Query string: Query (compound): COc1cccc2c1CCC(=O)/C2=C/c1ccc(Br)cc1 ; field requested: pIC50
Result string: 5.17

Query string: Query (compound): COc1cccc2c1CCC(=O)/C2=C/c1ccc(Cl)cc1 ; field requested: pIC50
Result string: 5.12

// data source = ChEMBL document CHEMBL2150986
